molecular target: β-catenin141–305 (Homo sapiens); construct: Amino acids 141-305 of uniprot ID: P35222; GST (cleaved yes); made in house; host or cells: E. coli BL21 (DE3); assay: 2D 15N NMR (TROSY/HSQC/HMQC) detected binding and Kd titration; settings: titration curve of single cross peak G245; read-out: NMR Kd, cross peak G245
measurementType: Kd (µM)
Answers are plain numbers, in µM.

[in] Please look at CN1C[C@@H](c2cccc(C#N)c2)Oc2ccccc2C1=O and tell me its recorded Kd on β-catenin141–305 (Homo sapiens).
[out] 575

###

Biological target: β-catenin141–305 (Homo sapiens, UniProt P35222)
Construct: Amino acids 141-305 of uniprot ID: P35222; GST (cleaved yes); made in house; host or cells: E. coli BL21 (DE3)
Sequence (P35222 141-305): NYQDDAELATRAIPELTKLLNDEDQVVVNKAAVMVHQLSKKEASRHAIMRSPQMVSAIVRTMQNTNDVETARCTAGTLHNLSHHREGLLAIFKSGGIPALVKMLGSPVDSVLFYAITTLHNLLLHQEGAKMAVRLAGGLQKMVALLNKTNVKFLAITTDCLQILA
Assay: 2D 15N NMR (TROSY/HSQC/HMQC) detected binding and Kd titration
Settings: titration curve of single cross peak D207; read-out: NMR Kd, cross peak D207
Experimental: The construct for expression of β-catenin141-305 (Amino acids 141-305 of uniprot ID: P35222) is based on the previously reported R4 construct1. The plasmid was used to transform E. coli, strain BL21 (DE3) cells (Invitrogen). […] Fractions were analyzed by SDS-PAGE and fractions containing the desired protein were pooled and concentrated with an Amicon© Ultra 15 mL Centrifugal Filter (Merck Millipore). […]
measurementType: Kd

[in] In one line, give reported Kd of the entry CN1C[C@@H](c2cccc(C#N)c2)Oc2ccccc2C1=O .
[out] 1010 µM

###

target: β-catenin141–305 (Homo sapiens, UniProt P35222); construct: Amino acids 141-305 of uniprot ID: P35222; GST (cleaved yes); made in house; host or cells: E. coli BL21 (DE3); assay: 2D 15N NMR (TROSY/HSQC/HMQC) detected binding and Kd titration; details: 15N NMR titration, single titration; mean of curves of selected cross peaks ± SD; read-out: HSQC Kd
measurementType: Kd (mM)
One number for each entry, in mM.

compound: CN1C[C@@H](c2ccccc2)Oc2ccccc2C1=O
uom: mM
result: 2.26
//
compound: CN1C[C@@H](c2cccc(C#N)c2)Oc2ccccc2C1=O
uom: mM
result: 0.915

[in] GET Kd where system = β-catenin141–305 (Homo sapiens, UniProt P35222) and item = CN1CC(c2ccccc2)Nc2ccccc2C1=O (stereo not drawn)
[out] 1.1

###

biological target: β-catenin141–305 (Homo sapiens); construct: Amino acids 141-305 of uniprot ID: P35222; GST (cleaved yes); made in house; host or cells: E. coli BL21 (DE3); test: 2D 15N NMR (TROSY/HSQC/HMQC) detected binding and Kd titration; conditions: 15N NMR titration, single titration; mean of curves of selected cross peaks ± SD; read-out: HSQC Kd
measurementType: Kd

Example entries begin here.
molecule: CN1C[C@H](c2cccc(C#N)c2)Oc2ccccc2C1=O [Compound 7]
Kd: > 10 mM
//
molecule: CN1C[C@H](c2ccccc2)Oc2ccccc2C1=O [Compound 5]
Kd: > 10 mM

Next molecule, please.
[in] Enter measured Kd, system β-catenin141–305 (Homo sapiens), for the molecule shown: O=C1NCCNc2c1cccc2[N+](=O)[O-] [Compound 1]
[out] > 10 mM

Data provenance is paper PMC8247886.
